assay: physchem; conditions: sheet table;; kinetic solubility, pH 7.4; aqueous buffer pH 7.4; Kinetic solubility at pH 7.4; read-out: Solubility (æM)
I'd appreciate it if you could supply solubility at 2 h values for the items below.

q: Field request: solubility at 2 h | item: CC(=O)N1CCN(c2ccc(NC(=O)c3cc(N(C)Cc4ccc(C(F)(F)F)nc4)ncn3)cn2)CC1
a: < 5 µM

q: Any idea what solubility at 2 h was measured for [C-]#[N+]c1ccc(CN(C)c2cc(C(=O)Nc3ccccc3)ncn2)cc1 ?
a: < 5 µM

###

target: BCG_3193 (Rv3169) (Mycobacterium bovis BCG); assay: biochemical; type: binding; details: IC50
Sequence (A0A1R3Y3B6 1-374): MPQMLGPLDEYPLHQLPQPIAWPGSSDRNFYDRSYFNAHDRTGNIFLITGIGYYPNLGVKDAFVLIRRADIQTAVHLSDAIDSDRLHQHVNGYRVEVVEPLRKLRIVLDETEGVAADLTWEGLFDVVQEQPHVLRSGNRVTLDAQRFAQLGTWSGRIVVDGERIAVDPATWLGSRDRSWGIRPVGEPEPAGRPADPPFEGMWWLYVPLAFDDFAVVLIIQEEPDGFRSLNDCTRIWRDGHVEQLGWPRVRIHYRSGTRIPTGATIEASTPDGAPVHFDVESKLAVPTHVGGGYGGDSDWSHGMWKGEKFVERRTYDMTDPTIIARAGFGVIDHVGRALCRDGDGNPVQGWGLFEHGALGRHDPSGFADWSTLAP
Measured endpoint: pIC50
Reminder that pIC50 is minus the log10 of a molar concentration.

q: Param item = CN1CCN(c2ccc(NC(=O)c3cc(N(C)Cc4ccc(C(F)(F)F)cc4)ncn3)cc2)CC1 ; retrieve measured pIC50.
a: 5.96

Sourced from paper PMC5748279
